Collected lung AUC values appear next to each entry.
- experiment_notes: Bioavailability / lung exposure after per os administration to mice
- Type: in vivo
- condition_details: 1 mg/kg
property: lung AUC (ng·h/g)

[[record]]
compound = "CN1CCC(OC(c2nc3cccc(Cl)c3[nH]2)c2ccccc2O)CC1 (single isomer, unassigned) [Example 6]"
property = "lung AUC"
readout_number = 6316

[[record]]
compound = "Cc1c(Cl)ccc2nc(C(OC3CCN(C)CC3)c3ccccc3O)[nH]c12 (single isomer, unassigned) [Example 7]"
property = "lung AUC"
readout_number = 1169

[[record]]
compound = "CN1CCC(OC(c2nc3ccc(Cl)c(F)c3[nH]2)c2ccccc2O)CC1 (single isomer, unassigned) [Example 3]"
property = "lung AUC"
readout_number = 10037

[[record]]
compound = "CN1CCC(OC(c2nc3cc(F)ccc3[nH]2)c2ccccc2O)CC1 (single isomer, unassigned) [Example 5]"
property = "lung AUC"
readout_number = 1264

[[record]]
compound = "Cc1cccc2nc(C(OC3CCN(C)CC3)c3ccccc3O)[nH]c12 (single isomer, unassigned) [Example 4]"
property = "lung AUC"
readout_number = 1144


====

- measured_on: hERG channel (Homo sapiens)
- Sequence (Q12809 whole entry): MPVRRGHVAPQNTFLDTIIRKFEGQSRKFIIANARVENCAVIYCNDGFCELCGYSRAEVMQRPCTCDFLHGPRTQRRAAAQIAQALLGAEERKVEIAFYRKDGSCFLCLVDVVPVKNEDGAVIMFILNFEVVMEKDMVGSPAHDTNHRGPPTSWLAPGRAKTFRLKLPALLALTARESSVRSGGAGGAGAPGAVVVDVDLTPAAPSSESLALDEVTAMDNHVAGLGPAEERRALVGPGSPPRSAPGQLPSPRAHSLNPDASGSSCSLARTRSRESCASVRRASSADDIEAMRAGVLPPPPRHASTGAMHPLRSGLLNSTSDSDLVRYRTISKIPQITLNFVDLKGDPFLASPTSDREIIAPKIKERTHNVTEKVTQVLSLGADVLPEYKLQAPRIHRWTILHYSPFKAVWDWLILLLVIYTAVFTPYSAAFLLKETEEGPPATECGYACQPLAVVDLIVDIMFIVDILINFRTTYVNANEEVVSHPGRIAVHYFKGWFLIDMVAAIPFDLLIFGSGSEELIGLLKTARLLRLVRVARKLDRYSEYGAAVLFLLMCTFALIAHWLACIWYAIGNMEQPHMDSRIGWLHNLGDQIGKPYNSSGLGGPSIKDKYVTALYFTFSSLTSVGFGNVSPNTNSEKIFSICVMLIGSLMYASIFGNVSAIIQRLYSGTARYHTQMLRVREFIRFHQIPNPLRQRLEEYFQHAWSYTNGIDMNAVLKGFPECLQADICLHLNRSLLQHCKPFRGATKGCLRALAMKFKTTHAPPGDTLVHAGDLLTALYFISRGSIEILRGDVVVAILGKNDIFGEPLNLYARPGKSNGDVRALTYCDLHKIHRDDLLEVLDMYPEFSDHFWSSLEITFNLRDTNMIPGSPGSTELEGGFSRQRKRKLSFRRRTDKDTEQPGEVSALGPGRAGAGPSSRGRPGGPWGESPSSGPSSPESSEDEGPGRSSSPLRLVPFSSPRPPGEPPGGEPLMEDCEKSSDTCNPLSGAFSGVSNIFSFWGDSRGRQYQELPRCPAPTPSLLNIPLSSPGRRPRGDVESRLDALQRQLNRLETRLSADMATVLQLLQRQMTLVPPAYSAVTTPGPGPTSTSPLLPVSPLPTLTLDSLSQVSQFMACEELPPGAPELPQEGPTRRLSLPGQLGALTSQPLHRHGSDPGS
- experiment_notes: hERG competition binding
- condition_details: comparative compounds of WO 2012/041860, eutomer and distomer
pKi: −log10 of the molar value.
Short version: pKi at least 6 is Fulfilled, less is Not fulfilled.

[[record]]
compound = "Cc1ccc(C(OC2CCN(C)CC2)c2nc3ccccc3[nH]2)c(O)c1F (stereo not shown) [drawing 25 Eutomer, reference compound]"
measured_on = "hERG channel (Homo sapiens)"
qualitative_label = "Not fulfilled"

[[record]]
compound = "CN1CCC(OC(c2nc3ccccc3[nH]2)c2ccc(F)c(F)c2O)CC1 (stereo not shown) [drawing 26 Distomer, reference compound]"
measured_on = "hERG channel (Homo sapiens)"
qualitative_label = "Not fulfilled"

[[record]]
compound = "Cc1ccc(C(OC2CCN(C)CC2)c2nc3ccccc3[nH]2)c(O)c1F (stereo not shown) [drawing 25 Distomer, reference compound]"
measured_on = "hERG channel (Homo sapiens)"
qualitative_label = "Not fulfilled"

[[record]]
compound = "CN1CCC(OC(c2nc3ccccc3[nH]2)c2ccc(Cl)c(F)c2O)CC1 (stereo not shown) [drawing 28 Eutomer, reference compound]"
measured_on = "hERG channel (Homo sapiens)"
qualitative_label = "Not fulfilled"

[[record]]
compound = "Cc1ccc(C(OC2CCN(C)CC2)c2nc3ccccc3[nH]2)c(F)c1 (stereo not shown) [drawing 24 Eutomer, reference compound]"
measured_on = "hERG channel (Homo sapiens)"
qualitative_label = "Fulfilled"

[[record]]
compound = "Cc1ccc(C(OC2CCN(C)CC2)c2nc3ccccc3[nH]2)c(F)c1 (stereo not shown) [drawing 24 Distomer, reference compound]"
measured_on = "hERG channel (Homo sapiens)"
qualitative_label = "Fulfilled"


====

- measured_on: human H4 receptor (Homo sapiens, UniProt Q9H3N8)
- Sequence (Q9H3N8 whole entry): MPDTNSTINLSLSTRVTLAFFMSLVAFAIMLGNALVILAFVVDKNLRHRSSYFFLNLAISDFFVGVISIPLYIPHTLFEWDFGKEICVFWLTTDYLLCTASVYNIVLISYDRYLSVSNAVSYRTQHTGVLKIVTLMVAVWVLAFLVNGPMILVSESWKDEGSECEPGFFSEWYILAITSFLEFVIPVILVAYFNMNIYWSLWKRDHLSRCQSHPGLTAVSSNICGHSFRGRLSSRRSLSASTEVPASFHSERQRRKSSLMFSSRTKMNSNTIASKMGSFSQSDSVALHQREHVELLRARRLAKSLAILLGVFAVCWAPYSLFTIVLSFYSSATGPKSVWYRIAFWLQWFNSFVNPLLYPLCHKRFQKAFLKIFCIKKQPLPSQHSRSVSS
- experiment_notes: hH4 binding competition
pKi: −log10 of the molar value.
We begin with a simple list: items and their reported pKi.
property: pKi

[[record]]
compound = "CN1CCC(OC(c2nc3ccccc3[nH]2)c2cccc(F)c2O)CC1 (single isomer, unassigned)"
property = "pKi"
readout_number = 6.10

[[record]]
compound = "CN1CCC(OC(c2nc3cc(F)ccc3[nH]2)c2ccccc2O)CC1 (single isomer, unassigned) [Example 5 Distomer A]"
property = "pKi"
readout_number = 6.60

[[record]]
compound = "Cc1c(Cl)ccc2nc(C(OC3CCN(C)CC3)c3ccccc3O)[nH]c12 (single isomer, unassigned)"
property = "pKi"
readout_number = 7.14

[[record]]
compound = "CN1CCC(OC(c2nc3cccc(Cl)c3[nH]2)c2ccccc2O)CC1 (single isomer, unassigned) [Example 6 Distomer A]"
property = "pKi"
readout_number = 6.32

[[record]]
compound = "CN1CCC(OC(c2nc3cccc(Cl)c3[nH]2)c2ccccc2O)CC1 (single isomer, unassigned) [Example 6]"
property = "pKi"
readout_number = 8.47

[[record]]
compound = "CN1CCC(OC(c2nc3cc(F)ccc3[nH]2)c2ccccc2O)CC1 (single isomer, unassigned) [Example 5]"
property = "pKi"
readout_number = 9.04

